Just for reference, paper PMC5033595 is where these values come from.

- Tested on: T. cruzi epimastigotes (Dm28c strain)
- EXPERIMENT NOTES: Anti-epimastigote effect (proliferation/survival, counting of viable forms)
- Type: cell-based, Trypanosoma cruzi
- STUDY CONDITIONS: Trypanosoma cruzi, 168 h, read-out: IC50 T. cruzi
READOUT LABEL: pIC50
Please note pIC50 is a logarithmic value: minus log10 of concentration in mol/L. Answer with that number alone.

Record COc1cc(/C=C/C(=O)CC(=O)/C=C/c2ccc(O)c(OC)c2)ccc1O [CUR, Curcumin] . Reported pIC50: 4.99
